Can you tell me growth inhibition for the items I'm about to list?
RUN DESCRIPTION: NCI Yeast Anticancer Drug Screen. Data for the sgs1 mgt1 strain (AID 161);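 note: 0% = growth of cultures given vehicle only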
MEASUREMENT CONTEXT: S. cerevisiae sgs1 mgt1 strain, at 50.0 µM, active compounds read high
This is part of a sample that, as a whole, favours compounds with a hit. Of some 79,000 tested, about 15% had one in any assay.
State the answer as a number, implicitly in %.

Name the recorded growth inhibition for CCOC(=O)C(NC(=O)Cc1ccccc1)C1NC(C(=O)O)CS1 (stereo unspecified) .
3.2

What value of growth inhibition has been reported for the following compound? CC1=CC(/C=C(\C)CCCc2ccoc2)C2(OC(=O)C(C)=C2O)[C@H]2C1CC[C@@H]2C (stereo partly specified)
53.5

What does the data say about its growth inhibition? Entry: O=CC1N=C1c1ccccc1 (stereo unspecified)
0.65

I am curious: what growth inhibition value has been reported for c1nnc2c3c4c(sc3ncn12)CCCC4 ?
2.4

What value of growth inhibition has been reported for the following compound? OCCN(CO)CCO
-0.25

I would be grateful if you could share the reported growth inhibition for O=[N+]([O-])c1ccc(OC(=S)Oc2ccc([N+](=O)[O-])cc2)cc1 .
2.9

# lookup: growth inhibition of COc1ccc(-c2cc(=O)c3cc(C)c(C)c(C#N)c3o2)cc1
-35.8

What value of growth inhibition has been recorded for this entry: COc1cc(N=C2C=CC(=O)C=C2)c2ncccc2c1
4.1

Record request: growth inhibition value, item CC(=O)NCCCCCC(=O)O
11.9

Which growth inhibition is listed for COC(=O)c1ccc(C)[n+](C2OC(COC(=O)c3ccccc3)C(OC(=O)c3ccccc3)C2OC(=O)c2ccccc2)c1 (stereo unspecified) ?
8

Give its growth inhibition value. Item: CCOc1cccc2c1N[S@@](=O)S2
11.5

Param item = CC(C)(C)NCC1CCCC1 ; retrieve measured growth inhibition.
2.4

Item O=C1CSC(c2ccccc2C(F)(F)F)N1c1nncs1 (stereo unspecified) has what recorded growth inhibition?
11.6

# get_value(readout='growth inhibition', item= Cc1ccc(-n2ncc3c(N)ncnc32)cc1 )
2.6

Requested read-out: growth inhibition. Entry: O=C1C=C(c2ccccc2)CC1
-6.05

So what's the measured growth inhibition for this one? CCCCCCCCCCCCCCCCn1cnc2c(Cl)ncnc21
-19.5

Which growth inhibition is reported for this compound? COc1cccc(NC(N)=O)c1
-9.3

Any idea what growth inhibition was measured for O=c1cc(NCc2c(Cl)cccc2[N+](=O)[O-])[nH]c(=O)[nH]1 ?
14.7

# growth inhibition lookup, item CN(C)CCSCC(=O)N1c2ccccc2Sc2ccccc21
-5.8

Recorded growth inhibition for Nc1ccccc1N , please?
14.4

Value lookup for growth inhibition; key = O=C1NC(=O)C2(CCCCCC2)N1
10.1

So what's the measured growth inhibition for this one? NC(=O)C(=O)C1CCC2=C(Sc3ccccc3N2)C1=O (stereo unspecified)
-6.35

# growth inhibition lookup, item Cn1c(=O)oc2cc(C(=O)CSC(=S)N3CCCCCC3)ccc21
-17.6

Please report the recorded growth inhibition for CC1C(c2ccccc2)NC(c2ccccc2)C(C)C1(O)c1ccccc1 (stereo unspecified) .
11.6

Any idea what its growth inhibition is? The compound is O=C(NC1c2ccccc2CCc2ccccc21)C(F)(F)F
14.5

Fill in: growth inhibition of O=CNCO is ___
22.6

Need growth inhibition, item NC(Cc1cccc(F)c1)C(=O)O (stereo unspecified)
6.7

Could you tell me which growth inhibition is on file for CN(C)c1ccc(NC2COc3ccccc3C2=O)cc1 (stereo unspecified) ?
17.4

Quick one: growth inhibition of Nc1ncnc(N)c1NC(=O)c1cccc(-c2ccccc2)c1 ?
23.9

Form field: reported growth inhibition of O=C1CN(c2cccc(Cl)c2)C(=O)CN1CCN1CC(=O)N(c2cccc(Cl)c2)CC1=O
-19.6

What does the record list as growth inhibition for Cc1cc(O)c(C(c2ccccn2)c2c(O)cc(C)[nH]c2=O)c(=O)[nH]1 ?
-7.9

For the compound shown here, O=[N+]([O-])c1ccc(Cl)c(OCCBr)c1 , give the reported growth inhibition.
-2.05

For the compound shown here, CCCCc1ccc2[n+](c1)C(C(=O)OCC)=PC2 (stereo unspecified) , give the reported growth inhibition.
-21.4

State the recorded growth inhibition for this entry: CC(C)(Nc1nc2c(ncn2C2OC(CO)C(O)C2O)c(=O)[nH]1)P(=O)(O)O (stereo unspecified)
17

What does the record list as growth inhibition for Cn1cnc([N+](=O)[O-])c1C(=O)NCc1ccccc1 ?
5.15

Need growth inhibition of O=c1[nH]c2ccccc2nc1/C=C/n1c(=S)[nH]c2ccccc21 , thanks.
-46.4

For the compound COCC(OC)C(Cl)C(=O)Nc1ccc(Br)cc1 (stereo unspecified) , what growth inhibition is on record?
15.2

Any idea what its growth inhibition is? The compound is Cn1c(=O)c2c(nc(N(CCN(N=O)c3nc4c(c(=O)n(C)c(=O)n4C)n3C)N=O)n2C)n(C)c1=O
-25.7

# growth inhibition lookup, item c1ccc(C2=C([P+](c3ccccc3)(c3ccccc3)c3ccccc3)CCO2)cc1
98.7

Bench note: what growth inhibition did N#CCCC(CCC#N)(CCC(CCC#N)(CCC#N)[N+](=O)[O-])[N+](=O)[O-] show?
10.8

# input compound: C=CCOC(OCC=C)C(C)C ; wanted: its growth inhibition
-13.9

Which measured growth inhibition value corresponds to COC(=O)c1c(O)c(C#N)c2[nH]c3ccccc3n2c1=O ?
-10.6

Find the recorded growth inhibition belonging to CCOC(=O)C(C)(C)c1ccc(OC)cc1 and report it.
-8.6

Which growth inhibition value is on record for CS(=O)(=O)OCC(O)C(O)C(OS(C)(=O)=O)C(O)COS(C)(=O)=O (stereo unspecified) ?
-7.75

Tell me the measured growth inhibition of Cc1ccc2cccnc2c1 , please.
-0.95

Can you look up the measured growth inhibition of Nc1cccc(/C=C/c2cccc([N+](=O)[O-])c2)c1 for me?
12.8

Given CC(C)c1ccc(C(C)(C)O)cc1 , state its recorded growth inhibition.
-19.8

Reported growth inhibition for S=C1Cc2c([nH]c3ccccc23)-c2ccccc2N1 : what is it?
-8.85

Which growth inhibition is reported for this compound? CCOC1CSc2ccccc2C(c2ccccc2)=N1 (stereo unspecified)
0.25

Look up growth inhibition: COc1ccc(C2=Nc3ccccc3NC(=O)C2)cc1
-12.6

growth inhibition lookup needed for CN1C(CC(=O)c2ccccc2)CCCC1CC(O)c1ccccc1 (stereo unspecified) , thanks.
25.4

Sourced from PubChem BioAssay (NCI)
